# System: JJN-3 cells
# protocol description: Biological Assay C: antiproliferative activity on JJN-3 cells (CellTiter-Glo)
# Format: cell-based
# setup conditions: Homo sapiens, 72 hr treatment

{"columns": ["compound", "measurement unit", "EC50"],
 "data": [
  ["CC(C)(O)C#Cc1cc2c(cn1)c(C1CCN(CCF)CC1)cn2-c1nc(N)ncc1F [Compound 40]", "µM", 0.151],
  ["CC(O)(C#Cc1cc2c(ccn2-c2ccnc(N)n2)cn1)c1nccs1 (centres unmarked) [Compound 5]", "µM", 0.237],
  ["CC(C)(O)C#Cc1cc2c(ccn2-c2nc(N)ncc2F)cn1 [Compound 12]", "µM", 0.132],
  ["CN1CCC(c2cn(-c3ccnc(N)n3)c3cc(C#CC(C)(O)c4nccs4)ncc23)CC1 (centres unmarked) [Compound 56]", "µM", 2.49],
  ["CC(C)(O)C#Cc1cc2c(cn1)c(CCC(C)(C)O)cn2-c1ccnc(N)n1 [Compound 31]", "µM", 0.358]
]}
